- system-tested: XIAP BIR3 (Homo sapiens)
- Construct: covering amino acids 255 to 356; GST; His
- Sequence (P98170 255-356): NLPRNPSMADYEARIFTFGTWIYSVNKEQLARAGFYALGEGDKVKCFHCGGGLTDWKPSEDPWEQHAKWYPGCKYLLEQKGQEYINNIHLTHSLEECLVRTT
- test-method-notes: Binding experiment of XIAP BIR3 (fluorescence polarization)
- measurement-parameters: 30 nM XIAP BIR3, 5 nM probe ARPFAQ-K(5-FAM)-NH2, 60 min
measurement-label: IC50 (nM)
A number alone suffices; assume nM.

Worked examples, 6 molecules total:
- molecule: "CN[C@@H](C)C(=O)N[C@H](C(=O)N1CCC[C@H]1Cn1cc(-c2ccnn2C)c2cc(F)ccc21)C1CCCCC1 [Example 26]"
  units-text: "nM"
  IC50: 60
- molecule: "CN[C@@H](C)C(=O)N[C@H](C(=O)N1CCC[C@H]1Cn1cc(C(C)=O)c2cc(OC(F)(F)F)ccc21)C1CCCCC1 [Example 11]"
  units-text: "nM"
  IC50: 139
- molecule: "CN[C@@H](C)C(=O)N[C@H](C(=O)N1CCC[C@H]1Cn1nc(C(C)=O)c2cc(Cl)ccc21)C1CCCCC1 [Example 14]"
  units-text: "nM"
  IC50: 49.9
- molecule: "CN[C@@H](C)C(=O)N[C@H](C(=O)N1C[C@@H](Oc2ccccc2)C[C@H]1Cn1cc(C(C)=O)c2cc(F)ccc21)C1CCCCC1 [Example 31]"
  units-text: "nM"
  IC50: 49.1
- molecule: "CN[C@@H](C)C(=O)N[C@H](C(=O)N1CCC[C@H]1Cn1cc(C(C)=O)c2c(F)c(Cl)ccc21)C1CCCCC1 [Example 10]"
  units-text: "nM"
  IC50: 27.2
- molecule: "CN[C@@H](C)C(=O)N[C@H](C(=O)N1CCC[C@H]1Cn1cc(C(C)=O)c2cc(Cl)cnc21)C1CCCCC1 [Example 16]"
  units-text: "nM"
  IC50: 346

Let us move to another entry and its IC50.
// field: IC50; key: CN[C@@H](C)C(=O)N[C@H](C(=O)N1CCC[C@H]1Cn1cc(N2CCCC2=O)c2cc(Cl)ccc21)C1CCCCC1 [Example 28] ; value = 27.3
